Biological target: T1, IGFBP-1 (human, UniProt P08833 26-259)
T1 construct: Biotinylated in the ELISA assays; also called rhIGFBP-1
T1 sequence (looked up): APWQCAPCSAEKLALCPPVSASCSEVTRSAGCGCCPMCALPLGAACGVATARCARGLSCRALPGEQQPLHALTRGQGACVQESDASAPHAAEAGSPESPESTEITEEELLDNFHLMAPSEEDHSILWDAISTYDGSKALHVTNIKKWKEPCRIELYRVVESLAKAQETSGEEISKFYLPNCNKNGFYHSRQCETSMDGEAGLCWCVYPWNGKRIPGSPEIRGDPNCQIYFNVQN
Test: ELISA plate assay: peptide inhibits IGFBP-1 binding to IGF-I; ratio to bp1-01 (wt)
readout-label: IC50 (mut)/IC50 (wt) (ratio)

{"binder": "CKEGPLLWLCERFF (g8 bp1-01 selectant) [bp1030]", "readout-label": "IC50 (mut)/IC50 (wt)", "units-label": "ratio", "test-result": 4.3}
{"binder": "CKAGPLLWLCERFF (g8 bp1-01 selectant) [bp1027]", "readout-label": "IC50 (mut)/IC50 (wt)", "units-label": "ratio", "test-result": 8.8}
{"binder": "CRAGPLQWLCERYF (g8 bp1-01 selectant) [bp67]", "readout-label": "IC50 (mut)/IC50 (wt)", "units-label": "ratio", "test-result": 0.34}
{"binder": "CRAGPLQWLCERFF (g8 bp1-01 selectant) [bp1028]", "readout-label": "IC50 (mut)/IC50 (wt)", "units-label": "ratio", "test-result": 4.6}
{"binder": "CRAGPLQWLCEKFF (g8 bp1-01 selectant) [bp68]", "readout-label": "IC50 (mut)/IC50 (wt)", "units-label": "ratio", "test-result": 0.39}
{"binder": "CREGPLQWLCERFF (g8 bp1-01 selectant) [bp1029]", "readout-label": "IC50 (mut)/IC50 (wt)", "units-label": "ratio", "test-result": 1.7}
{"binder": "CAAGPLQWLCEKYF (g8 bp1-01 selectant) [bp1-15]", "readout-label": "IC50 (mut)/IC50 (wt)", "units-label": "ratio", "test-result": 0.68}
